Origin of measurements: BindingDB's records for doi:10.1111/j.1476-5381.1983.tb10541.x

- tested_target: Thromboxane A2 receptor (Mus musculus, UniProt P30987)
- Sequence (P30987 whole entry): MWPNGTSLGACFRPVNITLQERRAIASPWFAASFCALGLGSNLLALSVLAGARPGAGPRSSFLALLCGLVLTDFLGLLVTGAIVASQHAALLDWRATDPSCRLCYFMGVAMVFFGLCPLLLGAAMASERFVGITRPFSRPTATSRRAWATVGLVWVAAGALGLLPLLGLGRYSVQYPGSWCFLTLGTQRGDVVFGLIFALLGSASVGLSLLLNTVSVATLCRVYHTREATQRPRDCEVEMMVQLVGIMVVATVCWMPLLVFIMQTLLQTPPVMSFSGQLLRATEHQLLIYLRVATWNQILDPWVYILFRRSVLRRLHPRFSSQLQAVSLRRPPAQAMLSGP
measured_quantity: Ki (nM)

Consider the reported Ki for these compounds:
compound	units_label	result
CCCCC(C)(C)[C@H](O)/C=C/[C@@H]1[C@@H](C/C=C\CCCC(=O)O)[C@@H](O)C[C@H]1O	nM	770
CCCCC[C@H](O)/C=C/C1C[C@H]2C[C@H](C2)[C@@H]1C/C=C\CCCC(=O)O (some centres undefined)	nM	1500
O=C(O)CCCC=CCC1C(O)CC(O)C1C=CC(O)COc1ccc(F)cc1 (centres undefined)	nM	320
CCCCC[C@H](O)CC[C@H]1c2cc([nH]n2)[C@@H]1CC=CCCCC(=O)O	nM	1100

I: CCCCC[C@@H](O)/C=C/[C@H]1C[C@H]2C[C@@H]([C@@H]1C/C=C\CCCC(=O)O)C2(C)C
II: CCCCCC(O)C=CC1C2CCC(C2)C1CC=CCCCC(=O)O (centres undefined)
Select one. Lower Ki: I or II Provide the label of your selected option as the answer.
II

---

Attribute: pKi
- tested_target: Thromboxane A2 receptor (Mus musculus, UniProt P30987)
pKi: −log10 of the molar value.

Consider the reported pKi for these compounds:
compound	pKi
CCCCC/C=C\C/C=C\C/C=C\C/C=C\CCCC(=O)O [[1-14C]Arachidonic acid]	< 5.00
CCCCC[C@H](O)/C=C/[C@H]1[C@H](O)CC(=O)[C@@H]1C/C=C\CCCC(=O)O	< 5.00

Give reported pKi for CCCCC[C@H](O)/C=C/C1[C@H](O)C[C@H](O)[C@@H]1C/C=C\CCCC(=O)O (stereo partly drawn) (Thromboxane A2 receptor (Mus musculus, UniProt P30987))
< 5.00
